Please provide measured EC50 for the entries that follow.
- targetOrTestSystem: cyno FGFR2b protein (recombinant) (cyno, UniProt A0A2K5TL97 22-380)
- testProtocol: ELISA, plate-coated cyno FGFR2b
One number for each entry, in nM.

binder	EC50 (nM)
BGAm1371 (antibody, V domains shown, assays detect or capture it with anti-human IgG; also called parental mouse clone; murine parental antibody of BGAh9179) VH: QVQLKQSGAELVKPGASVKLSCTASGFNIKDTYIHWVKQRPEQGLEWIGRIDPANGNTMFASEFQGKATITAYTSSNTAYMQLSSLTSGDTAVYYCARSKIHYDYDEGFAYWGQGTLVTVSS VL: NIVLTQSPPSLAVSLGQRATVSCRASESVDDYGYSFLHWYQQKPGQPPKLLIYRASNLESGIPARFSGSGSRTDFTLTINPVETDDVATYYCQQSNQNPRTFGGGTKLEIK	0.0245
BGAh9239 (antibody, human IgG1, kappa, V domains shown, also called humanized antibody developed from BGAm1823) VH: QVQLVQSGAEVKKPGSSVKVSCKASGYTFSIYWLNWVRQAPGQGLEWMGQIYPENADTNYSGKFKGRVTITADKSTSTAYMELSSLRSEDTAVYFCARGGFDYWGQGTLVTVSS VL: DIQMTQSPSSLSASVGDRVTITCRASENIYSNLAWYQQKPGKAPKLLIYTATNLAEGVPSRFSGSGSGTDFTLTISSLQPEDFATYYCQHFYGILYTFGQGTRLEIKR	0.0442
BGAh9179 (antibody, human IgG1, kappa, V domains shown, also called BGA9179; humanized antibody developed from BGAm1371) VH: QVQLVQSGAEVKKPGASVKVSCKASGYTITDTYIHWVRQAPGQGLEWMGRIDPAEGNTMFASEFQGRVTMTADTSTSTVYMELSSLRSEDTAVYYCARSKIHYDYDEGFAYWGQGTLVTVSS VL: DIVLTQSPDSLAVSLGERATINCRASESVDDYGYSFLHWYQQKPGQPPKLLIYRASNLESGVPDRFSGSGSGTDFTLTISSLQAEDVAVYYCQQSNQNPRTFGGGTKVEIKR	0.0469

Next binder, EC50 to be filled in.
Record request: EC50 value, item BGAm1823 (antibody, V domains shown, assays detect or capture it with anti-human IgG; also called murine parental antibody of BGAh9239) VH: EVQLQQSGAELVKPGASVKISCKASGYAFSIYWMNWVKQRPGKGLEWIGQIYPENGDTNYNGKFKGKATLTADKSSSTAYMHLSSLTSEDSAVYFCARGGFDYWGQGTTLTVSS VL: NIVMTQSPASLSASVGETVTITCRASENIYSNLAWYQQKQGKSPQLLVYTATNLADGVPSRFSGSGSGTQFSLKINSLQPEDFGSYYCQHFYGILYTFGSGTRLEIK 0.0551
